Where do the numbers come from? From patent US20040176301A1.

Below, each entry is listed with its recorded % Inhibition, cyclin D1/CDK4 kinase.
# STUDY TARGET: CDK4/Cyclin D1 complex (UniProt P11802 1-303; P24385 1-295); further: test concentration or dose not given here
# Sequence (P11802 other isoform, or with tags, fused parts or gaps, chain 1 of 2): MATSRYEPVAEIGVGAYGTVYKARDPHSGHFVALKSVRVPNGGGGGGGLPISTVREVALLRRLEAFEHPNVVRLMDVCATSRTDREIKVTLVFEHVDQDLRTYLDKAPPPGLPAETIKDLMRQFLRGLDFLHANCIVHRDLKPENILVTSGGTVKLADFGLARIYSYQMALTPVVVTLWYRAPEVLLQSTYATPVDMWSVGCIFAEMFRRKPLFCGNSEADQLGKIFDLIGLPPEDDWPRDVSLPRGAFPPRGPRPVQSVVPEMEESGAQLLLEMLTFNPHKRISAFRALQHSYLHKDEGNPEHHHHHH
# Sequence (P24385 whole entry, chain 2 of 2): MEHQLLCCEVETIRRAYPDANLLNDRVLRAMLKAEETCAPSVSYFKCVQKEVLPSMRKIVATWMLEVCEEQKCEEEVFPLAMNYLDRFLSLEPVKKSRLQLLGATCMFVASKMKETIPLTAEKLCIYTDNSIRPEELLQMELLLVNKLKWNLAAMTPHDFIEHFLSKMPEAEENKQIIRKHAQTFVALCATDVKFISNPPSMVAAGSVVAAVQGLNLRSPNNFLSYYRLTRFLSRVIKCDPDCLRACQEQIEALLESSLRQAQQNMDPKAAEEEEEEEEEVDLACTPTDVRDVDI
# PROTOCOL DESCRIPTION: cell-based or functional assay
Ends that are not written are not given here.

{"BINDER": "DFYHSKRRLAFS-NH2 [DFYHSKRRLAFS-NH2]", "READOUT UNIT": "%", "% Inhibition, cyclin D1/CDK4 kinase": 61}
{"BINDER": "DFYASKRRLIFS-NH2 [DFYASKRRLIFS-NH2]", "READOUT UNIT": "%", "% Inhibition, cyclin D1/CDK4 kinase": 60}
{"BINDER": "DFYHSKRRLIFA-NH2 [DFYHSKRRLIFA-NH2]", "READOUT UNIT": "%", "% Inhibition, cyclin D1/CDK4 kinase": 60}
{"BINDER": "YHSKRRLIFSKR-NH2 [YHSKRRLIFSKR-NH2]", "READOUT UNIT": "%", "% Inhibition, cyclin D1/CDK4 kinase": 60}
